The values you see were collected from patent US9067932B2.

Reported Ki values for the following molecules.
# Measured Target: PKC theta kinase (Homo sapiens)
# Sequence (Q04759 whole entry): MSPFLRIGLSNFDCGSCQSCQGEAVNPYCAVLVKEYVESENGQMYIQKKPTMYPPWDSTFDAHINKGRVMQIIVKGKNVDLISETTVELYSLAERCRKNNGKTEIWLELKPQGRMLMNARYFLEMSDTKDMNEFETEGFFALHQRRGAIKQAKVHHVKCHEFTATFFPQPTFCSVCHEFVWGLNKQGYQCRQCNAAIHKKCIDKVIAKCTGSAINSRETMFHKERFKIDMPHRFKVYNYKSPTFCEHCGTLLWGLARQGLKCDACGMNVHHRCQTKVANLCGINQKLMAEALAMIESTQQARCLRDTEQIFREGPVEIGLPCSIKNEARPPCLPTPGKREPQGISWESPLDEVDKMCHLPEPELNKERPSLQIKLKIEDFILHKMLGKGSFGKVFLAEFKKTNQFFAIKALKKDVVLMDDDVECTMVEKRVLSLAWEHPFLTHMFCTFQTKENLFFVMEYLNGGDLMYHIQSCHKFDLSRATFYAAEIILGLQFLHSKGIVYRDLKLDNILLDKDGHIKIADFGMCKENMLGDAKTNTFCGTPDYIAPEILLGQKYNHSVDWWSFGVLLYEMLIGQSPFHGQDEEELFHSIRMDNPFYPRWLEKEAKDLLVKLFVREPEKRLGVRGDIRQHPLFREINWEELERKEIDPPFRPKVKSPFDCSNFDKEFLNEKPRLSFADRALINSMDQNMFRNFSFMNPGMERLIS
# Run Description: PKC theta coupled-enzyme (NADH consumption) kinase assay
# Assay type: biochemical
# Condition Set: 18 nM PKC theta, 240 μM ATP, 30° C., initial rate at 340 nm; read-out: Ki PKC theta
Measured Property: Ki

INSERT INTO assay_data (molecule, measured_target, reported_value) VALUES
  ('CC(C)(C)C(O)C1CN(c2nc(-c3n[nH]c4ncccc34)c(F)cc2Cl)CCN1 (centres unmarked) [Compound 26]', 'PKC theta kinase (Homo sapiens)', '< 1 nM'),
  ('CC(C)C(O)C1CN(c2nc(-c3n[nH]c4ncccc34)c(F)cc2Cl)CCN1 (centres unmarked) [Compound 21]', 'PKC theta kinase (Homo sapiens)', '< 50 nM'),
  ('CC(CO)[C@@](C)(O)[C@@H]1CN(c2nc(-c3n[nH]c4ncccc34)c(F)cc2F)CCN1 (some centres unmarked) [Compound 40]', 'PKC theta kinase (Homo sapiens)', '< 1 nM'),
  ('CC(C)[C@@](C)(O)C1CN(c2nc(-c3n[nH]c4ncccc34)c(C#N)cc2F)CCN1 (some centres unmarked) [Compound 35]', 'PKC theta kinase (Homo sapiens)', '< 500 nM'),
  ('OC(C1CC1)C1CN(c2nc(-c3n[nH]c4ncccc34)c(F)cc2Cl)CCN1 (centres unmarked) [Compound 31]', 'PKC theta kinase (Homo sapiens)', '< 1 nM'),
  ('CC(C)[C@@](C)(O)[C@@H]1CN(c2nc(-c3n[nH]c4ncccc34)c(F)cc2Cl)CCN1 [Compound 9]', 'PKC theta kinase (Homo sapiens)', '< 1 nM'),
  ('CC(C)C(N)[C@H]1CCN(c2nc(-c3n[nH]c4ncccc34)c(C#N)cc2F)C1 (single isomer, unassigned) [Compound 36]', 'PKC theta kinase (Homo sapiens)', '< 500 nM'),
  ('CC(C)C(N)[C@H]1CCN(c2nc(-c3n[nH]c4ncccc34)c(F)cc2Cl)C1 (some centres unmarked) [Compound 24]', 'PKC theta kinase (Homo sapiens)', '< 50 nM'),
  ('CC(C)[C@@](C)(O)[C@@H]1CN(c2nc(-c3n[nH]c4ncccc34)c(F)cc2CO)CCN1 [Compound 44]', 'PKC theta kinase (Homo sapiens)', '< 1 nM'),
  ('COCC(C)(O)C1CN(c2nc(-c3n[nH]c4ncccc34)c(F)cc2F)CCN1 (centres unmarked) [Compound 16]', 'PKC theta kinase (Homo sapiens)', '< 50 nM'),
  ('CC(C)C(N)[C@H]1CCN(c2nc(-c3n[nH]c4ncccc34)c(F)cc2Cl)C1 (some centres unmarked) [Compound 23]', 'PKC theta kinase (Homo sapiens)', '< 1 nM'),
  ('CC[C@H](O)[C@@H]1CN(c2nc(-c3n[nH]c4ncccc34)c(F)cc2F)CCN1 [Compound 25]', 'PKC theta kinase (Homo sapiens)', '< 50 nM'),
  ('CC(CO)[C@@](C)(O)[C@@H]1CN(c2nc(-c3n[nH]c4ncccc34)c(F)cc2F)CCN1 (some centres unmarked) [Compound 39]', 'PKC theta kinase (Homo sapiens)', '< 50 nM'),
  ('CC1(C)CC1(O)C1CN(c2nc(-c3n[nH]c4ncccc34)c(F)cc2F)CCN1 (centres unmarked) [Compound 2]', 'PKC theta kinase (Homo sapiens)', '< 1 nM'),
  ('CC(O)(C1CC1)C1CN(c2nc(-c3n[nH]c4ncccc34)c(F)cc2Cl)CCN1 (centres unmarked) [Compound 30]', 'PKC theta kinase (Homo sapiens)', '< 1 nM'),
  ('CC(C)C(O)C1CN(c2nc(-c3n[nH]c4ncccc34)c(F)cc2Cl)CCN1 (centres unmarked) [Compound 20]', 'PKC theta kinase (Homo sapiens)', '< 1 nM'),
  ('CC(O)(C1CN(c2nc(-c3n[nH]c4ncccc34)c(F)cc2F)CCN1)C(F)(F)F (centres unmarked) [Compound 13]', 'PKC theta kinase (Homo sapiens)', '< 1 nM'),
  ('CC(C)(C)C(O)C1CN(c2nc(-c3n[nH]c4ncccc34)c(F)cc2F)CCN1 (centres unmarked) [Compound 27]', 'PKC theta kinase (Homo sapiens)', '< 1 nM'),
  ('CC(C)(F)C(C)(O)C1CN(c2nc(-c3n[nH]c4ncccc34)c(F)cc2F)CCN1 (centres unmarked) [Compound 11]', 'PKC theta kinase (Homo sapiens)', '< 1 nM'),
  ('CC(C)C(N)[C@H]1CCN(c2nc(-c3n[nH]c4ncccc34)c(F)cc2C#N)C1 (some centres unmarked) [Compound 37]', 'PKC theta kinase (Homo sapiens)', '< 50 nM');
